target: SST2 (Homo sapiens, UniProt P30874); construct: host or cells: PathHunter CHO-K1 SST2 cells; assay: PathHunter CHO-K1 SST2 internalization assay; assay type: cell-based; conditions: PathHunter CHO-K1 SST2, 90 min; read-out: Internalization EC50
Sequence (P30874 whole entry): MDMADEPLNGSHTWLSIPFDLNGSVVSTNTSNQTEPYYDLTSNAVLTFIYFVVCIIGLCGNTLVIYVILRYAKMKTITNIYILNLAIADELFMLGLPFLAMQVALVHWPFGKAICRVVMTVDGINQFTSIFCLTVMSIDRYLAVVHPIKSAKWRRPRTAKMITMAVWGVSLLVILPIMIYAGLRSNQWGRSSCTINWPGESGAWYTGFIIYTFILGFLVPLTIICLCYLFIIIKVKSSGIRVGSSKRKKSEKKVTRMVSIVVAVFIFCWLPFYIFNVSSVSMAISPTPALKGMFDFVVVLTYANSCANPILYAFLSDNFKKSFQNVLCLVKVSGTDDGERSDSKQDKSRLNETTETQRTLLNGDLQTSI
Starred links: 1 amine or outer side, 2 acyl side, 3 side chain; linkers in the order of their positions; H or OH if unused. Non-standard residues stand in square brackets, D forms with d. Residues, ends and D or L forms follow the SMILES beside them. *: point of attachment. X1 = Cc1cc(F)cc(-c2cnc(NCCNC(=O)CCOCCC(=O)*)c(-c3nc4ccc(Cl)cc4[nH]3)c2N2CCC(N)CC2)c1; Dolaproine = CO[C@@H]([C@@H]1CCCN1)[C@@H](C)C(=O)O; Dil = CC[C@H](C)[C@H](NC)[C@@H](CC(=O)O)OC; PABC = O=C(OCc1ccc(N[*:1])cc1)[*:2]; X2 = C[C@@H](N*)[C@@H](O)c1ccccc1; Cya = N[C@@H](CS(=O)(=O)O)C(=O)O; Cit = NC(=O)NCCC[C@H](N)C(=O)O; NMeV = CN[C@H](C(=O)O)C(C)C
Give measured EC50 for each item. Keep answers brief.
Numbers only; they are read as nM.

input: Give recorded EC50. `CC[C@H](C)[C@@H]([C@@H](CC(=O)N1CCC[C@H]1[C@H](OC)[C@@H](C)C(=O)N[C@H](C)[C@@H](O)c1ccccc1)OC)N(C)C(=O)[C@@H](NC(=O)[C@H](C(C)C)N(C)C(=O)OCc1ccc(NC(=O)[C@H](C)NC(=O)[C@@H](NC(=O)CCOCCC(=O)N(C)CCNc2ncc(-c3cc(C)cc(F)c3)c(N3CCC(N)CC3)c2-c2nc3ccc(Cl)cc3[nH]2)C(C)C)c(O[C@@H]2O[C@H](C(=O)O)[C@@H](O)[C@H](O)[C@H]2O)c1)C(C)C`
output: 14

input: Return the recorded EC50 value; entry: CC[C@H](C)[C@@H]([C@@H](CC(=O)N1CCC[C@H]1[C@H](OC)[C@@H](C)C(=O)N[C@H](C)[C@@H](O)c1ccccc1)OC)N(C)C(=O)[C@@H](NC(=O)[C@H](C(C)C)N(C)C(=O)OCc1ccc(NC(=O)[C@H](CCCNC(N)=O)NC(=O)[C@@H](NC(=O)[C@H](CS(=O)(=O)O)NC(=O)CCOCCC(=O)NCCNc2ncc(-c3cc(C)cc(F)c3)c(N3CCC(N)CC3)c2-c2nc3ccc(Cl)cc3[nH]2)C(C)C)cc1)C(C)C [Compound 83] (X1-[Cya]V[Cit][PABC][NMeV]V[Dil][Dolaproine]-X2)
output: 2.9
